test system: SF-539 CNS; experiment: NCI-60 one-dose screen, 48 h; details: 10 µM unless noted
Compounds without any hit were thinned out: in the full panel of roughly 83,000, 20% have a hit. Active and inactive are the calls of the source. How the source made its calls: active means growth percent below 10; inactive means the rest.
Hi! Could you answer with just one of these? 1.0 = active, 0.0 = inactive

// outcome(item) with item = COc1cccc(/C=C(/C)c2ccc3cccc(OC)c3[o+]2)c1O
0.0

----------
test system: NCI-H460 lung; experiment: NCI-60 one-dose screen, 48 h (100 = growth as untreated, 0 = no growth, -100 = all killed); settings: 10 µM unless noted
This is part of a sample that, as a whole, favours compounds with a hit. Of some 83,000 tested, about 20% had one in any assay.
Quick list: growth per entry.
State the answer as a number, implicitly in %.

Answered examples (5):
Hello, please tell me recorded growth for this one: c1ccc(C(c2nc3ncncc3[nH]2)N2CSc3nc4ccccc4n3C2)cc1 (stereo not drawn)
107

Hello, please tell me recorded growth for this one: N#Cc1c(-c2cccs2)cc(-c2cnccn2)nc1SCC(=O)Nc1ccc(Br)cc1
70.6

Hello, please tell me recorded growth for this one: COc1ccc(-n2c(/C=C3\C(=O)Nc4ccccc43)ccc2CO)cc1
113

Hello, please tell me recorded growth for this one: C=CCn1c(SCC(=O)Nc2ccc(C(=O)/C=C/c3cc(OC)c(OC)c(OC)c3)cc2)nnc1-c1c[nH]c2ccccc12
3.42

Hello, please tell me recorded growth for this one: CNC(=O)c1c(NC(=O)c2cccc(C(F)(F)F)c2F)sc2c1CCC(=O)C2
7.32

Continuing:
Hello, please tell me recorded growth for this one: COc1cc2nc(Cl)nc(Nc3cccc(C4=Nc5c(N)nc(N)nc5NC(c5ccccc5)C4)c3)c2cc1OC (stereo not drawn)
87.4

Hello, please tell me recorded growth for this one: CCNC(=O)Oc1ccc(/C(=C(/C)c2ccccc2)c2ccc(OCCN3CCCCCC3)cc2)cc1
-67.3

Hello, please tell me recorded growth for this one: C[C@@H]1C[C@H]2C(=O)O[C@@H](C)C(NC(=O)[C@H](Cc3cc(F)cc(F)c3)NC(=O)Nc3ccc(Cl)cc3F)C(=O)N3CCC[C@H]3C(=O)N3CCCC[C@H]3C(=O)N[C@@H](CO)C(=O)N2C1 (stereo partly drawn)
14.5

Hello, please tell me recorded growth for this one: NS(=O)(=O)c1ccc(Nc2nc(SCC(=O)c3ccc(Cl)cc3)nc3c2CCCC3)cc1
21

Hello, please tell me recorded growth for this one: O=S(=O)(Oc1ccc(-c2nnc(Nc3ccccc3)s2)cc1)C(F)(F)C(F)(F)C(F)(F)C(F)(F)C(F)(F)C(F)(F)F
103

Hello, please tell me recorded growth for this one: CCC(CC)N1C(=O)/C(=c2\sc3n(c2=O)NC2C(N=3)N(CC)C(=O)N2CC)c2ccccc21 (stereo not drawn)
27.5

Hello, please tell me recorded growth for this one: COc1cc(Nc2c(C#N)cnn3cc(-c4cnn(CC(C)(C)O)c4)cc23)ccc1Cl
59.7

Hello, please tell me recorded growth for this one: COc1cc2oc(-c3cccc(N)c3)cc(=O)c2c(OC)c1OC
106

----------
Quick list: growth per entry.
system: RPMI-8226 leukemia; assay: NCI-60 one-dose screen, 48 h (100 = growth as untreated, 0 = no growth, -100 = all killed); conditions: 10 µM unless noted
This is part of a sample that, as a whole, favours compounds with a hit. Of some 83,000 tested, about 20% had one in any assay.
State the answer as a number, implicitly in %.

Answered examples (5):
Hello, please tell me recorded growth for this one: C[C@H](CCC(=O)NCc1ccc(C(=O)Nc2ccccc2N)cc1)[C@H]1CC[C@H]2[C@@H]3[C@@H](O)C[C@@H]4C[C@H](O)CC[C@]4(C)[C@H]3CC[C@]12C
5.86

Hello, please tell me recorded growth for this one: O=S(=O)(NCCCNc1nccc(-n2cnc3ccccc32)n1)c1ccc(C(F)(F)F)cc1
69.7

Hello, please tell me recorded growth for this one: CCOP(=O)(OCC)OC[C@]12CCC(C)(C)C=C1[C@H]1CC[C@@H]3[C@@]4(C)CC[C@H](OP(=O)(OCC)OCC)C(C)(C)[C@@H]4CC[C@@]3(C)[C@]1(C)CC2
-43

Hello, please tell me recorded growth for this one: Nc1cc(-c2c[nH]c3ccc(Br)cc23)nc2cc(-c3c[nH]c4ccc(Br)cc34)nn12
15.9

Hello, please tell me recorded growth for this one: CC(C)(C)c1ccc(CC(=O)Nc2sc3c(c2C(N)=O)CCC(=O)C3)cc1
-20.7

Continuing:
Hello, please tell me recorded growth for this one: CC(C)(C)c1ccc(C(=O)Nc2sc3c(c2C(N)=O)CC/C(=N\O)C3)cc1
-16.7

Hello, please tell me recorded growth for this one: Nc1ccccc1NC(=O)c1ccc(NC(=O)C/C=C/c2cccnc2)cc1
6.76

Hello, please tell me recorded growth for this one: COc1cc(-c2nnc(SCc3ccc(O)c4ncccc34)n2-c2ccccc2)cc(OC)c1OC
3.25

Data credit: PubChem BioAssay (NCI)
